Record form. Attribute: TGI. Fill in for each entry.
System: A549 NSCLC
Assay: NCI tumour cell line growth inhibition, 48 h

-- ask Report TGI for CC(ONC(=O)c1cc(C(F)(F)F)cc(C(F)(F)F)c1)C(=O)Nc1ccc(Cl)cc1 (stereo not drawn) please.
-- reply > 41.3 µM

-- ask Report TGI for `CC(=O)Oc1ccc2c(c1)c1c(=O)oc(N(C)C)nc1n2Cc1ccccc1` please.
-- reply > 100 µM

-- ask Report TGI for CC(C)C(C/C=C1/CC(CO)(COC(=O)CC(C(C)C)C(C)C)OC1=O)C(C)C (stereo not drawn) please.
-- reply 14.6 µM

---

Record form. Attribute: GI50. Fill in for each entry.

-- ask GI50 of CCN(CC)CCOc1ccc(/C=C2\CC3C4CCC5=CC(=O)CC[C@]5(C)C4CC[C@]3(C)C2=O)cc1OC (some centres undefined) on MDA-MB-435?
-- reply 1.87 µM

-- ask GI50 of `CC(=O)/C=C/C1=C(c2cc3ccccc3s2)c2ccccc2CC1` on MDA-MB-435?
-- reply 23 µM

-- ask GI50 of `CN1C(=O)CNC(=O)[C@H](NC(=O)c2nc3ccccc3cc2O)CSSC[C@H]1C(=O)NCCc1nc2ccccc2cc1O` on MDA-MB-435?
-- reply 2.5 µM

-- ask GI50 of `CCCCC(=O)N/N=C/c1cc(I)cc(I)c1O` on MDA-MB-435?
-- reply 5.54 µM
